# PROTOCOL DESCRIPTION: total protein half-life in vivo (active degradation + dilution); higher = more stable protein
# EXPERIMENTAL SETUP: E. coli NCM3722 delta-lon; growth: N-lim chemostat; doubling time 6 h
READOUT: total protein half-life in vivo (h)

[[record]]
record_sequence = "MTDVLLCVGNSMMGDDGAGPLLAEKCAAAPKGNWVVIDGGSAPENDIVAIRELRPTRLLIVDATDMGLNPGEIRIIDPDDIAEMFMMTTHNMPLNYLIDQLKEDIGEVIFLGIQPDIVGFYYPMTQPIKDAVETVYQRLEGWEGNGGFAQLAVEEE [P0AEV9]"
value = 4.17

[[record]]
record_sequence = "MSESVQSNSAVLVHFTLKLDDGTTAESTRNNGKPALFRLGDASLSEGLEQHLLGLKVGDKTTFSLEPDAAFGVPSPDLIQYFSRREFMDAGEPEIGAIMLFTAMDGSEMPGVIREINGDSITVDFNHPLAGQTVHFDIEVLEIDPALEA [P0AEM0]"
value = 5.05

[[record]]
record_sequence = "MSVIKMTDLDLAGKRVFIRADLNVPVKDGKVTSDARIRASLPTIELALKQGAKVMVTSHLGRPTEGEYNEEFSLLPVVNYLKDKLSNPVRLVKDYLDGVDVAEGELVVLENVRFNKGEKKDDETLSKKYAALCDVFVMDAFGTAHRAQASTHGIGKFADVACAGPLLAAELDALGKALKEPARPMVAIVGGSKVSTKLTVLDSLSKIADQLIVGGGIANTFIAAQGHDVGKSLYEADLVDEAKRLLTTCNIPVPSDVRVATEFSETAPATLKSVNDVKADEQILDIGDASAQELAEILKNAKTILWNGPVGVFEFPNFRKGTEIVANAIADSEAFSIAGGGDTLAAIDLFGIADKISYISTGGGAFLEFVEGKVLPAVAMLEERAKK [P0A799]"
value = 5.68


* * *

Entries and their measured total protein half-life in vivo follow.
# PROTOCOL DESCRIPTION: total protein half-life in vivo (active degradation + dilution); higher = more stable protein
# EXPERIMENTAL SETUP: wild type E. coli NCM3722; growth: C-lim chemostat; doubling time 6 h
READOUT: total protein half-life in vivo (h)

[[record]]
record_sequence = "MQASQFSAQVLDWYDKYGRKTLPWQIDKTPYKVWLSEVMLQQTQVATVIPYFERFMARFPTVTDLANAPLDEVLHLWTGLGYYARARNLHKAAQQVATLHGGKFPETFEEVAALPGVGRSTAGAILSLSLGKHFPILDGNVKRVLARCYAVSGWPGKKEVENKLWSLSEQVTPAVGVERFNQAMMDLGAMICTRSKPKCSLCPLQNGCIAAANNSWALYPGKKPKQTLPERTGYFLLLQHEDEVLLAQRPPSGLWGGLYCFPQFADEESLRQWLAQRQIAADNLTQLTAFRHTFSHFHLDIVPMWLPVSSFTGCMDEGNALWYNLAQPPSVGLAAPVERLLQQLRTGAPV"
value = 4.84

[[record]]
record_sequence = "MEALGMIETRGLVALIEASDAMVKAARVKLVGVKQIGGGLCTAMVRGDVAACKAATDAGAAAAQRIGELVSVHVIPRPHGDLEEVFPIGLKGDSSNL [P0ABF4]"
value = 5.83

[[record]]
record_sequence = "MRKQWLGICIAAGMLAACTSDDGQQQTVSVPQPAVCNGPIVEISGADPRFEPLNATANQDYQRDGKSYKIVQDPSRFSQAGLAAIYDAEPGSNLTASGEAFDPTQLTAAHPTLPIPSYARITNLANGRMIVVRINDRGPYGNDRVISLSRAAADRLNTSNNTKVRIDPIIVAQDGSLSGPGMACTTVAKQTYALPAPPDLSGGAGTSSVSGPQGDILPVSNSTLKSEDPTGAPVTSSGFLGAPTTLAPGVLEGSEPTPAPQPVVTAPSTTPATSPAMVTPQAVSQSASGNFMVQVGAVSDQARAQQYQQQLGQKFGVPGRVTQNGAVWRIQLGPFASKAEASTLQQRLQTEAQLQSFITTAQ"
value = 5.89

[[record]]
record_sequence = "MLELLFLLLPVAAAYGWYMGRRSAQQNKQDEANRLSRDYVAGVNFLLSNQQDKAVDLFLDMLKEDTGTVEAHLTLGNLFRSRGEVDRAIRIHQTLMESASLTYEQRLLAIQQLGRDYMAAGLYDRAEDMFNQLTDETDFRIGALQQLLQIYQATSEWQKAIDVAERLVKLGKDKQRVEIAHFYCELALQHMASDDLDRAMTLLKKGAAADKNSARVSIMMGRVFMAKGEYAKAVESLQRVISQDRELVSETLEMLQTCYQQLGKTAEWAEFLQRAVEENTGADAELMLADIIEARDGSEAAQVYITRQLQRHPTMRVFHKLMDYHLNEAEEGRAKESLMVLRDMVGEKVRSKPRYRCQKCGFTAYTLYWHCPSCRAWSTIKPIRGLDGL [P0AB58]"
value = 5.91

[[record]]
record_sequence = "MKYQLTALEARVIGCLLEKQVTTPEQYPLSVNGVVTACNQKTNREPVMNLSESEVQEQLDNLVKRHYLRTVSGFGNRVTKYEQRFCNSEFGDLKLSAAEVALITTLLLRGAQTPGELRSRAARMYEFSDMAEVESTLEQLANREDGPFVVRLAREPGKRENRYMHLFSGEVEDQPAVTDMSNAVDGDLQARVEALEIEVAELKQRLDSLLAHLGD"
value = 6

[[record]]
record_sequence = "MSEIVIRHAETRDYEAIRQIHAQPEVYCNTLQVPHPSDHMWQERLADRPGIKQLVACIDGDVVGHLTIDVQQRPRRSHVADFGICVDSRWKNRGVASALMREMIEMCDNWLRVDRIELTVFVDNAPAIKVYKKYGFEIEGTGKKYALRNGEYVDAYYMARVK"
value = 4.83

[[record]]
record_sequence = "MSKCSADETPVCCCMDVGTIMDNSDCTASYSRVFANRAEAEQTLAALTEKARSVESEPCKITPTFTEESDGVRLDIDFTFACEAEMLIFQLGLR [P0AD33]"
value = 4.14

[[record]]
record_sequence = "MQDRNFDDIAEKFSRNIYGTTKGQLRQAILWQDLDRVLAEMGPQKLRVLDAGGGEGQTAIKMAERGHQVILCDLSAQMIDRAKQAAEAKGVSDNMQFIHCAAQDVASHLETPVDLILFHAVLEWVADPRSVLQTLWSVLRPGGVLSLMFYNAHGLLMHNMVAGNFDYVQAGMPKKKKRTLSPDYPRDPAQVYLWLEEAGWQIMGKTGVRVFHDYLREKHQQRDCYEALLELETRYCRQEPYITLGRYIHVTARKPQSKDKV"
value = 5.46

[[record]]
record_sequence = "MSKLDLNALNELPKVDRILALAETNAELEKLDAEGRVAWALDNLPGEYVLSSSFGIQAAVSLHLVNQIRPDIPVILTDTGYLFPETYRFIDELTDKLKLNLKVYRATESAAWQEARYGKLWEQGVEGIEKYNDINKVEPMNRALKELNAQTWFAGLRREQSGSRANLPVLAIQRGVFKVLPIIDWDNRTIYQYLQKHGLKYHPLWDEGYLSVGDTHTTRKWEPGMAEEETRFFGLKRECGLHEG"
value = 2.91

[[record]]
record_sequence = "MNKVVLLCRPGFEKECAAEITDKAGQREIFGFARVKENAGYVIYECYQPDDGDKLIRELPFSSLIFARQWFVVGELLQHLPPEDRITPIVGMLQGVVEKGGELRVEVADTNESKELLKFCRKFTVPLRAALRDAGVLANYETPKRPVVHVFFIAPGCCYTGYSYSNNNSPFYMGIPRLKFPADAPSRSTLKLEEAFHVFIPADEWDERLANGMWAVDLGACPGGWTYQLVKRNMWVYSVDNGPMAQSLMDTGQVTWLREDGFKFRPTRSNISWMVCDMVEKPAKVAALMAQWLVNGWCRETIFNLKLPMKKRYEEVSHNLAYIQAQLDEHGINAQIQARQLYHDREEVTVHVRRIWAAVGGRRDER [P0ADR6]"
value = 5.93

[[record]]
record_sequence = "MKQLWFAMSLVTGSLLFSANASATPASGALLQQMNLASQSLNYELSFISINKQGVESLRYRHARLDNRPLAQLLQMDGPRREVVQRGNEISYFEPGLEPFTLNGDYIVDSLPSLIYTDFKRLSPYYDFISVGRTRIADRLCEVIRVVARDGTRYSYIVWMDTESKLPMRVDLLDRDGETLEQFRVIAFNVNQDISSSMQTLAKANLPPLLSVPVGEKAKFSWTPTWLPQGFSEVSSSRRPLPTMDNMPIESRLYSDGLFSFSVNVNRATPSSTDQMLRTGRRTVSTSVRDNAEITIVGELPPQTAKRIAENIKFGAAQ [P0AFX9]"
value = 6.16


* * *

# PROTOCOL DESCRIPTION: total protein half-life in vivo (active degradation + dilution); higher = more stable protein
# EXPERIMENTAL SETUP: wild type E. coli NCM3722; growth: C-lim chemostat; doubling time 12 h
Entries and their measured total protein half-life in vivo follow.
READOUT: total protein half-life in vivo

[[record]]
record_sequence = "MGAELVKWVKSHKIDAHIITFVAKMPYIDSIKLLEAGAKGCVWKTSHPAKLNRAIDSISNGYTYFDSVHMDCEKISSRYSSDNQLTNRESEILQLIADGKTNKEIANFLQLSRKTVETHRLNIMKKLDVHSGIELIKTALRMGVCTI"
value = "8.41 h"

[[record]]
record_sequence = "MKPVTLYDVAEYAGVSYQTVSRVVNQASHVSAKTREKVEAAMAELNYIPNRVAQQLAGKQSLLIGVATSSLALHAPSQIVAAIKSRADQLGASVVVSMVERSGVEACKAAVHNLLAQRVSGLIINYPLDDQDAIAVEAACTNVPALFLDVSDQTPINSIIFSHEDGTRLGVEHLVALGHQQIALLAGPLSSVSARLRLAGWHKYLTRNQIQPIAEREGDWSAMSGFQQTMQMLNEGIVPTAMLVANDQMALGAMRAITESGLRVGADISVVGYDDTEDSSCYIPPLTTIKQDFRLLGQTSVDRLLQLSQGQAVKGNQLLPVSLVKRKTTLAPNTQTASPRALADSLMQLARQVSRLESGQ"
value = "7.63 h"

[[record]]
record_sequence = "MTHKATEILTGKVMQKSVLITGCSSGIGLESALELKRQGFHVLAGCRKPDDVERMNSMGFTGVLIDLDSPESVDRAADEVIALTDNCLYGIFNNAGFGMYGPLSTISRAQMEQQFSANFFGAHQLTMRLLPAMLPHGEGRIVMTSSVMGLISTPGRGAYAASKYALEAWSDALRMELRHSGIKVSLIEPGPIRTRFTDNVNQTQSDKPVENPGIAARFTLGPEAVVDKVRHAFISEKPKMRYPVTLVTWAVMVLKRLLPGRVMDKILQG [P0AFP4]"
value = "13.6 h"

